Tested on: U-2932
Test: growth inhibition by drug alone (1 - RLU/untreated control) (fraction); higher = stronger inhibition
Settings: 1000 nM; time (day): 5; 177Lu-lilotomab satetraxetan 0 ug/ml
Structures can show the parent of a compound that is named as a salt.
Classification by growth inhibition by drug alone follows these ranges: lo = under -0.06, med = from -0.06 up to 0.2, hi = 0.2 and over

Please review the following examples before continuing.
Cc1[nH]c2ccccc2c1CCNCc1ccc(/C=C/C(=O)NO)cc1 : hi
CCN(CC)CCCCNc1ncc2cc(-c3cc(OC)cc(OC)c3)c(NC(=O)NC(C)(C)C)nc2n1 : lo
COc1cc2c(cc1O)CC[C@@H]1[C@@H]2CC[C@]2(C)[C@@H](O)CC[C@@H]12 : hi
O=C(NCCS(=O)(=O)c1ccc(C(F)(F)F)cn1)c1ccc(Cl)cc1 : med
Cn1cc(-c2ccc3nnc(Sc4ccc5ncccc5c4)n3n2)cn1 : lo

Classify this compound: Cc1cnc(-c2cnc(NCCNc3ccc(C#N)cn3)nc2-c2ccc(Cl)cc2Cl)[nH]1 lo

Classify this compound: CN(CCOc1ccc(CC2SC(=O)NC2=O)cc1)c1ccccn1 (stereo not drawn) lo

Classify this compound: O=C(CCCCCCC(=O)Nc1ccccc1)NO [Vorinostat (SAHA)] hi

Classify this compound: CCn1c(-c2nonc2N)nc2cnc(Oc3cccc(NC(=O)c4ccc(OCCN5CCOCC5)cc4)c3)cc21 med

Classify this compound: CN(NC(=O)CC(=O)NN(C)C(=S)c1ccccc1)C(=S)c1ccccc1 hi

Classify this compound: COc1cc2c(NC3CCN(C)CC3)nc(N3CCCN(C)CC3)nc2cc1OCCCN(C)C lo

Classify this compound: CC(C)OC(=O)C1=CN(C(=O)c2ccc(F)c(F)c2)CC(C)(C)c2c1[nH]c1ccccc21 med

Classify this compound: CC(C)C(=O)Nc1ccc([N+](=O)[O-])c(C(F)(F)F)c1 [Flutamide (Eulexin)] med

Classify this compound: CCOc1cc2ncc(C#N)c(Nc3ccc(F)c(Cl)c3)c2cc1NC(=O)/C=C/CN(C)C [Pelitinib (EKB-569)] med

Classify this compound: CCNC(=O)c1noc(-c2cc(C(C)C)c(O)cc2O)c1-c1ccc(CN2CCOCC2)cc1 hi

Classify this compound: Clc1ccc(Nc2nnc(Cc3ccncc3)c3ccccc23)cc1 [Vatalanib dihydrochloride (PTK787)] med

Classify this compound: CN(C)CCCN=c1c2ccccc2n(C)c2[nH]c(=O)n(C)c(=O)c12 med

----------
System: U-2932
Experiment: growth inhibition by drug alone (1 - RLU/untreated control) (fraction); higher = stronger inhibition
Details: 1000 nM; time (day): 5; 177Lu-lilotomab satetraxetan 0 ug/ml
Catalogue of growth inhibition by drug alone values
When you answer, write just the number.

Param item = CCOc1cc(C(=O)Nc2ccc(Cl)c(-c3nc4ccccc4[nH]3)c2)cc(OCC)c1OCC ; retrieve measured growth inhibition by drug alone. 0.057

Param item = CNC(=O)[C@@H](NC(=O)[C@H](CC(C)C)[C@H](O)C(=O)NO)C(C)(C)C ; retrieve measured growth inhibition by drug alone. -0.167

Param item = COc1cc2nccc(Oc3ccc(NC(=O)Nc4cc(C)on4)c(Cl)c3)c2cc1OC ; retrieve measured growth inhibition by drug alone. 0.0897

Param item = CCN1CCN(Cc2ccc(-c3cc4c(N[C@H](C)c5ccccc5)ncnc4[nH]3)cc2)CC1 ; retrieve measured growth inhibition by drug alone. -0.287

Just for reference, the supplement of paper PMC6897291 is where these values come from.
